pIC50 values by entry
# Target Or Test System: Histone acetyltransferase KAT5 (Homo sapiens)
# Sequence (Q92993 whole entry): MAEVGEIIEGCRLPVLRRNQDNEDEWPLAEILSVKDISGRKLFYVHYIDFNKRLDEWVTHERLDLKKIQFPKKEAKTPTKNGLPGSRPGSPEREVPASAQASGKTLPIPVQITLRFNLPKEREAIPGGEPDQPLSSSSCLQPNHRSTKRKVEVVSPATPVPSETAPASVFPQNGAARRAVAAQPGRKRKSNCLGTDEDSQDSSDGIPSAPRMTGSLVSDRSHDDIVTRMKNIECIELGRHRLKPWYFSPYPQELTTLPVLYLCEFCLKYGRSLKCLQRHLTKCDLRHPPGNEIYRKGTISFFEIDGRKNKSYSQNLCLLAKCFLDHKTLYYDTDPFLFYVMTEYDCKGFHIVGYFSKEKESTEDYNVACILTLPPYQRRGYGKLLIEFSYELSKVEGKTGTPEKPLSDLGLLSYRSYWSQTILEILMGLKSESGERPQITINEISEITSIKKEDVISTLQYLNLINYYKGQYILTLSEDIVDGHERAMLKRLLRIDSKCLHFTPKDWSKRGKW
# Protocol Details: Inhibition of recombinant Tip60 (1-513) expressed in Escherichia coli BL21 (DE3) by liquid scintillation
Lab note — pIC50 values are minus log10 of concentrations in M.

Known results for compounds:
INSERT INTO measurements (chemical_structure, readout_type, experimental_value) VALUES
  ('CC(C)(COP(=O)(O)OP(=O)(O)OC[C@H]1O[C@@H](n2cnc3c(N)ncnc32)[C@H](O)[C@@H]1OP(=O)(O)O)[C@@H](O)C(=O)NCCC(=O)NCCS', 'pIC50', 4.08),
  ('CC(=O)N[C@@H](CCCCNC(=O)CSCCNC(=O)CCNC(=O)[C@H](O)C(C)(C)COP(=O)(O)OP(=O)(O)OC[C@H]1O[C@@H](n2cnc3c(N)ncnc32)[C@H](O)[C@@H]1OP(=O)(O)O)C(N)=O', 'pIC50', 4.53);

*Q* What reported pIC50 corresponds to C=CC/C=C\C/C=C\CCCCCCCc1cccc(O)c1C(=O)O on Histone acetyltransferase KAT5 (Homo sapiens)?
*A* 3.43

---

# Target Or Test System: Histone acetyltransferase KAT2B (Homo sapiens)
# Sequence (Q92831 whole entry, the tested form may be a part): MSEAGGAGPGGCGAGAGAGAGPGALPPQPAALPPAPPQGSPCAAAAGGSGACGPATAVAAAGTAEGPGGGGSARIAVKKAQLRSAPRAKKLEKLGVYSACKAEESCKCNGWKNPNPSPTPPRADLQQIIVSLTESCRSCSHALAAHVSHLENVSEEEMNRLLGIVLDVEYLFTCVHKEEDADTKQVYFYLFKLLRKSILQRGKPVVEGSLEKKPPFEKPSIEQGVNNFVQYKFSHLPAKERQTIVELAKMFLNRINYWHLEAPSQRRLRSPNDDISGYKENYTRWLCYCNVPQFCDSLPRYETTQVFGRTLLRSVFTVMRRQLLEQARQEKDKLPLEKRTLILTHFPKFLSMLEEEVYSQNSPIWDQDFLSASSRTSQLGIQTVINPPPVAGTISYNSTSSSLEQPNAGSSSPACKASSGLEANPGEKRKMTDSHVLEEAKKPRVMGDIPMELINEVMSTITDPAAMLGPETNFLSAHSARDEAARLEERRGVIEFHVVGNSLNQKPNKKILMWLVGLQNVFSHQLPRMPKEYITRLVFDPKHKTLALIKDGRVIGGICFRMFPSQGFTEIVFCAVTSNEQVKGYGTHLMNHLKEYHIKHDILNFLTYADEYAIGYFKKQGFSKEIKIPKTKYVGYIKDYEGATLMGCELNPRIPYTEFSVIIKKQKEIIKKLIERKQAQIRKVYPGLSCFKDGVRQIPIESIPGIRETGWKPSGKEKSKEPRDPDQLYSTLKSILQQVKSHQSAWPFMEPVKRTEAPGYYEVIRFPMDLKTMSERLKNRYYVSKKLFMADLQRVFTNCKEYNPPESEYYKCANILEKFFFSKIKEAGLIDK
# Protocol Details: Inhibition of PCAF HAT domain (493-658) expressed in Escherichia coli BL21 (DE3)
Readout Type: pIC50
Conceptually, pIC50 converts a concentration in mol/L into minus its log10.

*Q* # get_value(readout= pIC50, system= Histone acetyltransferase KAT2B (Homo sapiens)) for C=CC/C=C\C/C=C\CCCCCCCc1cccc(O)c1C(=O)O
*A* 3.18

Values were extracted from ChEMBL document CHEMBL1143309.
